Test: Biodistribution experiments in normal mice after i.v. injection
Type: in vivo
Conditions: male, ddY, mouse, in vivo, iv, total radioactivity, Biodistribution of radioactivity, Kidney
Experimental: Experiments with animals were conducted in strict accordance with the Guidelines for the Care and Use of Laboratory Animals of Kanazawa University. […] Complete left femurs were isolated as representative bone samples, radioactivity was determined using gamma counters (AccuFLEX γ ARC-8001 in the case of ^18F, Hitachi, Ltd.), and background counts and physical decay were corrected during counting.
parameter: tissue uptake dose at 10 min (%ID)
State just the number; it will be interpreted in %ID.

query: Determine its reported tissue uptake dose at 10 min: O=C(O)CC[C@H](NC(=O)[C@H](CCC(=O)O)NC(=O)[C@H](CCC(=O)O)NC(=O)[C@H](CCC(=O)O)NC(=O)[C@H](CCC(=O)O)NC(=O)[C@H](CCC(=O)O)NC(=O)[C@H](CCC(=O)O)NC(=O)[C@H](CCC(=O)O)NC(=O)[C@H](CCC(=O)O)NC(=O)[C@H](CCC(=O)O)NC(=O)[C@H](CCC(=O)O)NC(=O)[C@H](CCC(=O)O)NC(=O)[C@H](CCC(=O)O)NC(=O)[C@H](CCC(=O)O)NC(=O)CN1CCN(CC(=O)O)CCN(CC(=O)O)CCN(CC(=O)O)CC1)C(=O)O [^67Ga-DOTA-(L-Glu)14, metal not drawn]
result: 22.1

----------
assay: Biodistribution experiments in normal mice after i.v. injection; assay type: in vivo; settings: male, ddY, mouse, in vivo, iv, total radioactivity, Biodistribution of radioactivity, Heart
Where a SMILES comes first, the peptide text is derived from it. [ ]: non-standard residue; d: D form. The star is where a group is joined. DOTA = O=C(O)CN1CCN(CC(=O)O)CCN(CC(=O)*)CCN(CC(=O)O)CC1
parameter: tissue uptake dose at 1 h

query: Determine its reported tissue uptake dose at 1 h: O=C(O)C[C@@H](NC(=O)[C@@H](CC(=O)O)NC(=O)CN1CCN(CC(=O)O)CCN(CC(=O)O)CCN(CC(=O)O)CC1)C(=O)O [^67Ga-DOTA-(D-Asp)2, metal not drawn] ({DOTA}-[dD]-[dD]-OH)
result: 0.11 %ID

query: Determine its reported tissue uptake dose at 1 h: O=C(O)CC[C@@H](NC(=O)[C@@H](CCC(=O)O)NC(=O)[C@@H](CCC(=O)O)NC(=O)[C@@H](CCC(=O)O)NC(=O)[C@@H](CCC(=O)O)NC(=O)[C@@H](CCC(=O)O)NC(=O)[C@@H](CCC(=O)O)NC(=O)[C@@H](CCC(=O)O)NC(=O)[C@@H](CCC(=O)O)NC(=O)[C@@H](CCC(=O)O)NC(=O)[C@@H](CCC(=O)O)NC(=O)[C@@H](CCC(=O)O)NC(=O)[C@@H](CCC(=O)O)NC(=O)[C@@H](CCC(=O)O)NC(=O)CN1CCN(CC(=O)O)CCN(CC(=O)O)CCN(CC(=O)O)CC1)C(=O)O [^67Ga-DOTA-(D-Glu)14, metal not drawn]
result: 0.08 %ID

query: Determine its reported tissue uptake dose at 1 h: O=C(O)C[C@@H](NC(=O)[C@@H](CC(=O)O)NC(=O)[C@@H](CC(=O)O)NC(=O)[C@@H](CC(=O)O)NC(=O)[C@@H](CC(=O)O)NC(=O)CN1CCN(CC(=O)O)CCN(CC(=O)O)CCN(CC(=O)O)CC1)C(=O)O [^67Ga-DOTA-(D-Asp)5, metal not drawn] ({DOTA}-[dD][dD][dD][dD][dD]-OH)
result: 0.12 %ID

query: Determine its reported tissue uptake dose at 1 h: O=C(O)CC[C@H](NC(=O)[C@H](CCC(=O)O)NC(=O)[C@H](CCC(=O)O)NC(=O)[C@H](CCC(=O)O)NC(=O)[C@H](CCC(=O)O)NC(=O)[C@H](CCC(=O)O)NC(=O)[C@H](CCC(=O)O)NC(=O)[C@H](CCC(=O)O)NC(=O)[C@H](CCC(=O)O)NC(=O)[C@H](CCC(=O)O)NC(=O)[C@H](CCC(=O)O)NC(=O)[C@H](CCC(=O)O)NC(=O)[C@H](CCC(=O)O)NC(=O)[C@H](CCC(=O)O)NC(=O)CN1CCN(CC(=O)O)CCN(CC(=O)O)CCN(CC(=O)O)CC1)C(=O)O [^67Ga-DOTA-(L-Glu)14, metal not drawn]
result: 0.1 %ID

query: Determine its reported tissue uptake dose at 1 h: O=C(O)C[C@@H](NC(=O)[C@@H](CC(=O)O)NC(=O)[C@@H](CC(=O)O)NC(=O)[C@@H](CC(=O)O)NC(=O)[C@@H](CC(=O)O)NC(=O)[C@@H](CC(=O)O)NC(=O)[C@@H](CC(=O)O)NC(=O)[C@@H](CC(=O)O)NC(=O)CN1CCN(CC(=O)O)CCN(CC(=O)O)CCN(CC(=O)O)CC1)C(=O)O [^67Ga-DOTA-(D-Asp)8, metal not drawn] ({DOTA}-[dD][dD][dD][dD][dD][dD][dD][dD]-OH)
result: 0.14 %ID
